endpoint: melting point

molecule	result.value
CCCc1cc(-c2ccc(C3COC(c4c(F)cccc4F)=N3)cc2)ccc1O (stereo not drawn)	210 to 215 °C
O=C1SC(CCCC#Cc2ccc(Cl)cc2)(S(=O)(=O)c2ccc(I)cc2)C(=O)N1Cc1ccc([N+](=O)[O-])cc1 (stereo not drawn)	172 to 175 °C
C=CCN1CCC=C(c2ccc(C(C)(C)CCCCCC)cc2O)C1	109 to 110 °C

====

compound	melting point
CCCCn1c(C)c(C)cc(Oc2nc3ccccc3o2)c1=O	106 to 108 °C
COCCN1CCN(CC2CCN(c3ccc(Cl)cc3)C2=O)CC1 (configuration not stated)	103 to 105 °C
CC(C)(C)OC(=O)C=Cc1cc2ccccc2o1	56 to 57 °C
CC1(C)CC(NC(=O)C(=O)NNC(=O)COc2ccc(C(=O)c3ccccc3)c(O)c2)CC(C)(C)N1	191 to 195 °C
Cc1csc2c1c(-c1ccccc1)nc(=O)n2C	275 to 280 °C
NCC(O)COc1ccc(-c2ccccc2)cc1 (configuration not stated)	138 to 147 °C
O=C1CCSc2c(O)cccc21	225 to 232 °C
COc1cc(-c2cnc3[nH]c(=O)n(CC4CCCCC4)c3n2)ccn1	295 to 297 °C
OCCCNC1=Nc2ccccc2C1(O)c1cccc(Cl)c1 (configuration not stated)	164 to 165 °C
CCOCc1nc2c(N)nc3cccnc3c2n1CCCC(C)N(OC)C(=O)NC(C)C (configuration not stated)	174 to 175 °C
CCCCCCCCCCCCCCC(=O)C(=O)NCCCC(=O)OC(C)(C)C	61 to 62 °C
CCCCc1nc2c(N)nc3c(c2n1CC(C)C)NCCC3	143 to 147 °C
Cc1ccccc1-n1ccc2c(NCCCO)nc3c(C)cccc3c21	135 to 137 °C
CCNc1cccc(NC(=O)COC(C)=O)c1C#N	110 to 113 °C
ON=C(c1ccc(F)cc1)c1ccc(O)c(Cl)c1Cl	150 to 156 °C
COC(=O)c1ccc(C=CC(=O)N2CCc3c([nH]c4ccccc34)C2c2ccccc2)cc1 (configuration not stated)	222 °C
COCc1nc2c(N)nc3cc(CCC(N)=O)ccc3c2n1CC(C)(C)O	228 to 230 °C
COc1ccc(C2Sc3ccccc3N(CCN(C)C)C(=O)C2OC(=O)c2ccccc2[N+](=O)[O-])cc1 (configuration not stated)	161 to 162 °C
CC(=O)N(C)c1cc2c(nc(C)n2C)c2c1CCC(c1ccccc1)O2 (configuration not stated)	214 to 216 °C
COc1ccc(C(=O)Nc2ccccc2)cc1NC(=S)Nc1ccc(Cl)cc1	179 to 180 °C
CS(=O)(=O)NCCC1(C[N+](=O)[O-])CCCCC1	86 to 88 °C
CCOC(=O)C(=CC1(OC)C=C2OCOC2=CC1)C(=O)OCC (configuration not stated)	118 °C
O=Cc1cc(Oc2c(Cl)cc(C(F)(F)F)cc2Cl)ccc1[N+](=O)[O-]	115 °C
O=C(OCc1ccccc1)c1cc(Br)c(OCc2ccccc2)cc1OCc1ccccc1	74 to 76 °C
O=[N+]([O-])CS(=O)(=O)c1ccc2c(c1)CCN2	139 °C
COC(=O)c1ccc(C2(C(=O)Oc3ccc(C(=O)NO)cc3)CCCCC2)cc1	129 to 131 °C
CS(=O)(=O)Nc1cc2c(cc1Oc1ccc(F)cc1F)C(O)CC2 (configuration not stated)	119 °C
OCc1ccc(OCc2cn3c(Cl)cccc3n2)cc1	169 to 171 °C
CC(C)NC(=O)C(Cl)Cl	45 to 48 °C
Cc1cc2cc(OCCC#N)ccc2o1	73 to 76 °C
CC1(C)Oc2ccc(S(=O)(=O)Nc3ccccc3)cc2C(N2CCCCC2=O)C1O (configuration not stated)	272 to 276 °C
COc1ccc(Oc2ccc(C(C)=C3SCCCS3=O)cc2)cc1 (configuration not stated)	136 to 138 °C
